The measurements presented in this section are drawn from patent US20220177587A1.

// values below are reported Relative Luciferase Units (RLU), CD80 Conc 5.0 nM
testedTarget: CD28 (Homo sapiens, UniProt P10747)
measurementDescription: Jurkat/IL2 + CHO/OKT3 +/- PD-L1 reporter assay: PD-L1-dependent CD28 costimulation
Assay type: cell-based
Set-up: host or cells: Jurkat cells expressing an IL-2-luciferase reporter
experimentalContext: Table E22; Jurkat/IL2 + CHO/OKT3/PD-L1; CD80 Conc 5.0 nM
Write it as a number; the unit RLU goes unstated.

Example cases with answers are listed next.
>>> reportedresult("E35D/M47L/A71G/D90G (protein) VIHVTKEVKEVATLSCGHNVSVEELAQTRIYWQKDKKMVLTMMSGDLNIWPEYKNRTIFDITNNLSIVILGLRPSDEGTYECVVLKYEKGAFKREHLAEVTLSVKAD")
784
>>> reportedresult("E35D/V68M/A71G/D90G (protein) VIHVTKEVKEVATLSCGHNVSVEELAQTRIYWQKDKKMVLTMMSGDMNIWPEYKNRTIFDITNNLSIMILGLRPSDEGTYECVVLKYEKGAFKREHLAEVTLSVKAD")
990
>>> reportedresult("H18Y/A26E/M47L/A71G (protein) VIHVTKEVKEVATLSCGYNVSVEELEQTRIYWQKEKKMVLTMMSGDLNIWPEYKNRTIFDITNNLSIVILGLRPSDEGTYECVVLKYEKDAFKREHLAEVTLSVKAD")
1107
>>> reportedresult("H18Y/A26E/V68M/D90G (protein) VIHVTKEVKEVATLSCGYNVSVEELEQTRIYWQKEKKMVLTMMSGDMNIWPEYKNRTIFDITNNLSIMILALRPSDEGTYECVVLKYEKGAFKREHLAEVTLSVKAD")
1131

Sample H18Y/E35D/M47L/A71G (protein) VIHVTKEVKEVATLSCGYNVSVEELAQTRIYWQKDKKMVLTMMSGDLNIWPEYKNRTIFDITNNLSIVILGLRPSDEGTYECVVLKYEKDAFKREHLAEVTLSVKAD ; Relative Luciferase Units (RLU), CD80 Conc 5.0 nM observed: 1387

Looking up E35D/M47L/V68M/A71G (protein) VIHVTKEVKEVATLSCGHNVSVEELAQTRIYWQKDKKMVLTMMSGDLNIWPEYKNRTIFDITNNLSIMILGLRPSDEGTYECVVLKYEKDAFKREHLAEVTLSVKAD , I see its Relative Luciferase Units (RLU), CD80 Conc 5.0 nM listed as 745

Relative Luciferase Units (RLU), CD80 Conc 5.0 nM recorded for this molecule, H18Y/A26E/A71G/D90G (protein) VIHVTKEVKEVATLSCGYNVSVEELEQTRIYWQKEKKMVLTMMSGDMNIWPEYKNRTIFDITNNLSIVILGLRPSDEGTYECVVLKYEKGAFKREHLAEVTLSVKAD , is 933
